Each recorded value in this set is attributed to paper PMC10184136.

target: calf intestinal alkaline phosphatase (CIALP) (Bos taurus)
Sequence (P19111 20-506 limits assumed): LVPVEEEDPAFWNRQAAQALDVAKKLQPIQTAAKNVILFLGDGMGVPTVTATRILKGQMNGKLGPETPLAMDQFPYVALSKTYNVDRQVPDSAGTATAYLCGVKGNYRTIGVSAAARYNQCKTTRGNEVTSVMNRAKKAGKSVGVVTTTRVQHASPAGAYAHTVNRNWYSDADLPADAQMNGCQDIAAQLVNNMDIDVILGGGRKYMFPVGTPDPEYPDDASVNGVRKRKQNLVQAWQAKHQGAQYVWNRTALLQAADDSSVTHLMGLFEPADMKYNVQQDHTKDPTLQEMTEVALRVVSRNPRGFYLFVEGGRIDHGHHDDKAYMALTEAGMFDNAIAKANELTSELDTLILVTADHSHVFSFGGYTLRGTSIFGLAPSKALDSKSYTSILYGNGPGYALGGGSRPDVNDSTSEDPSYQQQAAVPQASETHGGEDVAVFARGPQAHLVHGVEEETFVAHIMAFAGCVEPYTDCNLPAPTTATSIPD
measurementType: IC50 (µM)

[[record]]
querysmiles = "Cc1cnc(NC(=O)CCSc2nnc(-c3ccc(N)cc3)o2)s1"
measurementtype = "IC50"
unitannotation = "µM"
reportedmeasurement = 0.211

[[record]]
querysmiles = "Cc1cnc(NC(=O)CCSc2nnc(-c3ccccc3)o2)s1"
measurementtype = "IC50"
unitannotation = "µM"
reportedmeasurement = 6.32

[[record]]
querysmiles = "Cc1cnc(NC(=O)CCSc2nnc(-c3ccc(O)cc3)o2)s1"
measurementtype = "IC50"
unitannotation = "µM"
reportedmeasurement = 2.16

[[record]]
querysmiles = "O=C(CCSc1nnc(-c2ccc(O)cc2)o1)Nc1nccs1"
measurementtype = "IC50"
unitannotation = "µM"
reportedmeasurement = 5.99

[[record]]
querysmiles = "Cc1cnc(NC(=O)CCSc2nnc(-c3cccc([N+](=O)[O-])c3)o2)s1"
measurementtype = "IC50"
unitannotation = "µM"
reportedmeasurement = 3.75


1: O=C(CCSc1nnc(-c2ccccc2)o1)Nc1nccs1
2: Cc1ccc(-c2nnc(SCCC(=O)Nc3nccs3)o2)cc1
3: Nc1ccc(-c2nnc(SCCC(=O)Nc3nccs3)o2)cc1
Data request: Parameters: sort_field (IC50), sort_dir (desc). Give the labels in the order requested.
Data returned: 3, 1, 2

###

test system: red blood cell membrane (bovine erythrocytes); assay: Hemolytic activity; assay type: cell-based; conditions: bovine erythrocyte (RBC) suspension, pH 7.4
measurementType: hemolysis at 30 min, 1 mg/mL (%)
Answer format: numeric, % implied, no suffix.

Data request: What measured hemolysis at 30 min, 1 mg/mL is associated with Nc1ccc(-c2nnc(SCCC(=O)Nc3nccs3)o2)cc1 on red blood cell membrane (bovine erythrocytes)?
Data returned: 7.58

Data request: // map Cc1cnc(NC(=O)CCSc2nnc(-c3ccc(O)cc3)o2)s1 to recorded hemolysis at 30 min, 1 mg/mL (system: red blood cell membrane (bovine erythrocytes))
Data returned: 7.47

Data request: Checklist item: hemolysis at 30 min, 1 mg/mL tested on red blood cell membrane (bovine erythrocytes), entry O=C(CCSc1nnc(-c2ccc(O)cc2)o1)Nc1nccs1 , value?
Data returned: 5.68

Data request: Request body: readout hemolysis at 30 min, 1 mg/mL, system red blood cell membrane (bovine erythrocytes), query CC(C)(C)CC(C)(C)c1ccc(OCCO)cc1 [Triton X, reference compound] . Return the value.
Data returned: 89

Data request: Short answer please: hemolysis at 30 min, 1 mg/mL, red blood cell membrane (bovine erythrocytes), entry Cc1ccc(-c2nnc(SCCC(=O)Nc3nccs3)o2)cc1
Data returned: 8.32

Data request: Recorded hemolysis at 30 min, 1 mg/mL for Cc1cnc(NC(=O)CCSc2nnc(-c3ccc(N)cc3)o2)s1 with red blood cell membrane (bovine erythrocytes), please?
Data returned: 8.82

Data request: What hemolysis at 30 min, 1 mg/mL appears in the records for this compound with red blood cell membrane (bovine erythrocytes)? Cc1cnc(NC(=O)CCSc2nnc(-c3cccc([N+](=O)[O-])c3)o2)s1
Data returned: 8.63

Data request: Provide value of hemolysis at 30 min, 1 mg/mL for this record tested with red blood cell membrane (bovine erythrocytes): O=C(CCSc1nnc(-c2ccccc2)o1)Nc1nccs1
Data returned: 7.79

Data request: For red blood cell membrane (bovine erythrocytes), provide hemolysis at 30 min, 1 mg/mL of Cc1cnc(NC(=O)CCSc2nnc(-c3ccccc3)o2)s1 please.
Data returned: 6.84
